SYSTEM NAME: SARS-CoV-2 main protease (Mpro) (Severe acute respiratory syndrome coronavirus 2, UniProt P0DTD1)
ENDPOINT NAME: IC50 (nM)

> print(dat)
                                   molecule  result.units  limit.qualifier    val
1  C#CC(=O)N(c1ccc(-c2ccccc2)cc1)C(C(=O)N[C@@H](C)c1ccccc1)c1cccnc1 (some centres unmarked) [Jun10221R]            nM                =     20
2  CCCC#CC(=O)N(c1ccc(-c2ccccc2)cc1)C(C(=O)N[C@@H](C)c1ccccc1)c1cccnc1 (some centres unmarked)            nM                =   2510
3  COc1ccc(/C=C(\C#N)C(=O)N(c2ccc(-c3ccccc3)cc2)C(C(=O)N[C@@H](C)c2ccccc2)c2cccnc2)cc1 (some centres unmarked) [Jun10963S]            nM                >  20000
4  COc1ccc(/C=C(\C#N)C(=O)N(c2ccc(-c3ccccc3)cc2)C(C(=O)N[C@@H](C)c2ccccc2)c2cccnc2)cc1 (some centres unmarked) [Jun10963R]            nM                =    560
5  C[C@H](NC(=O)C(c1cccnc1)N(C(=O)C#CC(C)(C)C)c1ccc(-c2ccccc2)cc1)c1ccccc1 (some centres unmarked)            nM                >  20000

====

SYSTEM NAME: SARS-CoV-2 Mpro (Severe acute respiratory syndrome coronavirus 2)
ASSAY INFO: Mpro enzyme kinetics, Morrison plot Ki determination
Assay type: biochemical
pKi: −log10 of the molar value.
ENDPOINT NAME: pKi

> print(dat)
                                   compound  endpoint.name   val
1  COc1ccc(/C=C(\C#N)C(=O)N(c2ccc(-c3ccccc3)cc2)C(C(=O)N[C@@H](C)c2ccccc2)c2cccnc2)cc1 (stereo partly shown) [Jun10963R]            pKi  6.24
